SYSTEM TESTED: Short transient receptor potential channel 6 (Mus musculus)
MEASUREMENT NOTES: TRPC6 blockade by TRPC4 inhibitor hits – cell-based, HEK293, membrane potential dye, duplicate, selectivity assay for TRPC4 inhibitor project, confirmation (AID 434948)
CONDITIONS: HEK293 TRPC6, membrane potential dye fluorescence, at 10 µM, stimulated with maximal-effect acetylcholine
Active and inactive are the calls of the source.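 How the source made its calls: active means active in primary screen and both duplicates, each dropping signal beyond three positive-control SD with fluorescence still positive; inactive means the rest.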
Returns: one label drawn from 1 = active, 0 = inactive

Cc1n[nH]c(C)c1CCCCOc1ccccc1	0
C/C(=N/OCO/N=C(/C)c1ccc(F)cc1)c1ccc(F)cc1	0
CCCCCn1c2c(c(=N)c3ccccc31)CCC2	1
CC(C)Cn1c(O)c(N=NC(=O)c2cccc(S(=O)(=O)N3CCCCC3)c2)c2ccccc21	0
CCc1c(C)nc2ccc(Br)cc2c1SCCC#N	0

# input Which result was noted for this compound in the test: "CC1(C)CC(=O)C(C=NCCN2CCN(C(=O)CCl)CC2)=C(O)C1"
# output 0
